# test target: APOL1 (Homo sapiens)
# assay remarks: MultiTox-Fluor Multiplex Cytotoxicity Assay in tet-inducible APOL1 T-REx-HEK293 cells (cell rescue, ratio of dead to live cells)
# experimental parameters: tet-inducible transgenic APOL1 T-REx-HEK293 cell lines, 50 ng/mL tet, 24 hours; read-out: IP50 (i.e., IC50 for cell proliferation)
pIC50: −log10 of the molar value.
parameter measured: pIC50

Worked examples, 4 compounds total:
compound	pIC50
CC(C)CN1CC[C@]2(C[C@@H]1C)OCCc1cc(CC(F)F)sc12	6.30 to 7.00
C[C@H]1C[C@@]2(CCN1Cc1cn(CC(C)(CO)CO)nn1)OCCc1c2sc(C(F)(F)F)c1CO	> 7.00
CCc1cc2c(s1)CCO[C@@]21CCN(Cc2cn(CC(O)(CC)CCCO)nn2)[C@@H](C)C1 (some centres unmarked)	> 7.00
Clc1cc2c(s1)CCOC21CCN(Cc2cn[nH]c2)CC1	6.30 to 7.00

Please turn your attention to the following entry.
For APOL1 (Homo sapiens), provide pIC50 of Cc1cc2c(s1)CCO[C@@]21CCN(C2COCC2O)[C@@H](C)C1 (single isomer, unassigned) [Compound 499] please.
> 7.00

###

Kindly supply the reported pIC50 values for the records listed here.
# test target: APOL1 (Homo sapiens, UniProt O14791)
# Sequence (O14791 whole entry S342G/I384M, form open): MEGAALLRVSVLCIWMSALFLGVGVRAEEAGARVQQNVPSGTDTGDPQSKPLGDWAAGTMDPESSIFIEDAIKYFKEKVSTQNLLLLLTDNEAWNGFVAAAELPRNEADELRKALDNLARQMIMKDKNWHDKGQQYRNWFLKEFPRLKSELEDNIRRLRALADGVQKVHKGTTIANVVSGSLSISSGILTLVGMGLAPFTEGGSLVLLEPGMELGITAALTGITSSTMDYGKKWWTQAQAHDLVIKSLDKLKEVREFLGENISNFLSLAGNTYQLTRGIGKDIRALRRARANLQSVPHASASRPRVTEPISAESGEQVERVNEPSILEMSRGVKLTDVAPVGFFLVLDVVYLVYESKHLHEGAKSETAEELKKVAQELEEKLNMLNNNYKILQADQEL
# assay remarks: MultiTox-Fluor Multiplex Cytotoxicity Assay in tet-inducible APOL1 T-REx-HEK293 cells (cell rescue, ratio of dead to live cells)
# experimental parameters: tet-inducible transgenic APOL1 T-REx-HEK293 cell lines, 50 ng/mL tet, 24 hours; read-out: IP50 (i.e., IC50 for cell proliferation)
# Experimental: The MultiTox-Fluor Multiplex Cytotoxicity Assay is a single-reagent-addition, homogeneous, fluorescence assay that measures the number of live and dead cells simultaneously in culture wells. […] The MultiTox reagent was added to each well and placed back in the incubator for an additional 30 minutes. The plate was read on the EnVision plate reader. A ratio of dead to live cells was used to normalize, and data was imported, analyzed, and fit using Genedata Screener (Basel, Switzerland) software. […]
pIC50: −log10 of the molar value.

Worked examples, 2 compounds total:
compound	pIC50
CCc1cc2c(s1)CCO[C@@]21CCN(CC2CN(C(=O)c3cnc(C#N)nc3)C2)[C@@H](C)C1	6.30 to 7.00
CCc1cc2c(s1)CCO[C@@]21CCN(Cc2cn(CS(C)(=O)=O)nn2)[C@@H](C)C1	> 7.00

Would you mind giving pIC50 for every compound in the list below?
1. CCc1cc2c(s1)CCO[C@@]21CCN(Cc2cn(CC3(S(C)(=O)=O)CCOCC3)nn2)[C@@H](C)C1
2. CCc1cc2c(s1)CCO[C@@]21CCN(CC2CN(C(=O)c3nonc3N)C2)[C@@H](C)C1
3. C[C@H]1C[C@@]2(CCN1Cc1cnn(Cc3nnc[nH]3)c1)OCCc1c2sc(C(F)(F)F)c1CO

["> 7.00", "> 7.00", "6.30 to 7.00"]

Would you mind giving pIC50 for every compound in the list below?
1. CCc1cc2c(s1)CCO[C@@]21CCN(C[C@H]2C[C@@H](NC(=O)OC)C2)[C@@H](C)C1
2. Cc1cc2c(s1)[C@]1(CCN(Cc3cnn(CCS(C)(=O)=O)c3)[C@@H](C)C1)OCC2(O)C(F)F (stereo partly shown)

1. > 7.00
2. > 7.00
